Kindly state log10(IC50) for each of the entries shown.
biological target: rat NaPi-2b (Rattus norvegicus, UniProt Q9JJ09); assay: Sodium-dependent phosphate uptake of Xenopus oocytes which expressed NaPi-2b (32P); details: Xenopus oocytes expressing rat NaPi-2b, 32P radioactive phosphorus; read-out: IC50 (phosphate uptake inhibitory activity)
Sequence (Q9JJ09 whole entry): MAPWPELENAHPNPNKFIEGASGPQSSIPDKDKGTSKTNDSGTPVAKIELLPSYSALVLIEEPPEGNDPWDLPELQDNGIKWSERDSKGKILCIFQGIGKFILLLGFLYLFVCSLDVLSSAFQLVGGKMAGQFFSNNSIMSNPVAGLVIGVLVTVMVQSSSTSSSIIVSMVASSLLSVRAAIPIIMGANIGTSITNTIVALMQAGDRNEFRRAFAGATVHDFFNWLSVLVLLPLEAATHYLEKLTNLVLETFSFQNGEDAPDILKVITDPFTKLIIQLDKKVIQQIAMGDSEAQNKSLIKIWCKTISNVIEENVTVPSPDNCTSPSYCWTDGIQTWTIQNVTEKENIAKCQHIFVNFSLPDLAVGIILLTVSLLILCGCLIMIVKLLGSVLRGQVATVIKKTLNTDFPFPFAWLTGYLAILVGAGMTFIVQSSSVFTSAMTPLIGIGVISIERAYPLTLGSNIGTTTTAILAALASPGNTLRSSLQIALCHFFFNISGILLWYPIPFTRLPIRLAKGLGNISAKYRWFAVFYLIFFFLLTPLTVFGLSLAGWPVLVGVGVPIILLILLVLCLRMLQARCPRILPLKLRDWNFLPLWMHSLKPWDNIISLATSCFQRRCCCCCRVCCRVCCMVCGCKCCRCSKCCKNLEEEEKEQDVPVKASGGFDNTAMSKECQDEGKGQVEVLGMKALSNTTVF
Quick note: numbers are log10 of IC50, with µM as the unit.

[
  {
    "compound": "Cc1ccc(/C=N/NC(=O)c2cc(Br)ccc2NC(=O)c2ccncc2)cc1C",
    "log10(IC50)": 0.73
  }
]

Count: 4. Required value per item: log10(IC50).
1. CCN(CCO)Cc1ccc(C(=O)Nc2ccc(Cl)cc2C(=O)N/N=C/c2ccc(C)c(C)c2)cc1
2. COc1cc(/C=N/NC(=O)c2ccccc2NC(=O)c2ccc(OC)c(OC)c2)cc(OC)c1
3. CCN(CC)CCN(CCN(CC)CC)Cc1cccc(C(=O)Nc2scc(C)c2C(=O)N/N=C/c2ccc(F)cc2)c1
4. O=C(Nc1ccc(Br)cc1C(=O)N/N=C/c1ccc(F)cc1)c1ccc(CSCCO)cc1

0.92
0.61
0.84
0.04
